Record form. Attribute: pIC50. Fill in for each entry.
# Tested on: 565232-114-T-J1-PDC complex spheroid viability;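 also: spheroids exposed to compounds for 7 days before readout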
# test: Anticancer human tumor 565232-114-T-J1-PDC patient-derived bladder carcinoma cell line growth inhibition [CLK]
# condition_context: curve of first compound; second compound 0.0316 µM
pIC50: −log10 of the molar value.

-- ask Answer with reported pIC50 of C#Cc1c(F)ccc2cc(O)cc(-c3ncc4c(N5CC6CCC(C5)N6)nc(OCC56CCCN5CC(F)C6)nc4c3F)c12 (stereo not given) + CNC(=O)c1ccc(Nc2nc(OC3CCCC3)c3c(-c4ccc5nc(C)oc5c4)c[nH]c3n2)c(OC)c1
-- reply < 5.00

-- ask Please report the measured pIC50 for CC(=O)O[C@H]1C(=O)[C@@]2(C)[C@H]([C@H](OC(=O)c3ccccc3)[C@]3(O)C[C@H](OC(=O)[C@H](O)[C@@H](NC(=O)c4ccccc4)c4ccccc4)C(C)=C1C3(C)C)[C@]1(OC(C)=O)CO[C@@H]1C[C@@H]2O + CN1CCN(c2cc(C(=O)Nc3cc4cc(-c5cnn(C)c5)ccc4cn3)ccn2)CC1
-- reply > 7.50

-- ask Assign pIC50 to the following record: NC(=O)C(=Cn1cnc(-c2cc(C(F)(F)F)cc(C(F)(F)F)c2)n1)c1cncnc1 + CN1CCN(c2cc(C(=O)Nc3cc4cc(-c5cnn(C)c5)ccc4cn3)ccn2)CC1
-- reply 6.42

-- ask In one line, give reported pIC50 of the entry C=CC(=O)Nc1cc(Nc2nccc(-c3cn(C)c4ccccc34)n2)c(OC)cc1N(C)CCN(C)C + CN1CCN(c2cc(C(=O)Nc3cc4cc(-c5cnn(C)c5)ccc4cn3)ccn2)CC1 .
-- reply < 6.52

-- ask Indicate its recorded pIC50; the molecule in question is O=C(c1cc(Cc2n[nH]c(=O)c3ccccc23)ccc1F)N1CCN(C(=O)C2CC2)CC1 + CNC(=O)c1ccc(Nc2nc(OC3CCCC3)c3c(-c4ccc5nc(C)oc5c4)c[nH]c3n2)c(OC)c1
-- reply < 5.00
